# experiment.summary: yeast display, Sf9 membrane polyspecificity reagent, FACS + sequencing; frameworks hold sequencing errors
readout.kind: polyreactivity (PSR sort gate)

QVQLVESGGGLVQAGGSLRLTCAASGNIFYSYAMGWYRQAPGKERELVAAITIDGSTTYADSVKGRFTISRDNAKNTVYLQMNSLKPEDTAVYYCAKEGEAYPATYRYQFDYWGQGTQVTVSS ... low polyreactivity
QVQLVESGGGLVQAGGSLRLSCAASGRIFRYYAMGWYRQAPGKERELVASITSGARTSYADSVKGRFTISRDNAKNTVYLQMNSLKPEDTAVYYCAPGYSYSPGRMGYWGQGTQVTVSS ... high polyreactivity
QVQLVESGGGLVQAGGSLRLSCAASGSIFRSYAMGWYRQSPGKERELVASISRRGGSTYYADSVKGRFTISRDNAKNTVYLQMNSLKPEDTAVYYCAAVRYNSRVSTTPSDMYYWGQGTQVTVSS ... low polyreactivity
QVQLVESGGGLLQAGGSLRLSCAASGHTLYRYARGWYRQAPGKERELVAAITSRGGSTFYADSVKGRFTISRDTAKNSVYLQMNRLQPEDTAVYYCNTARGTAPAHDYWGQGTQVTVSS ... low polyreactivity

Next item in the queue.
Tell me measured polyreactivity (PSR sort gate) for QVQLVESGGGLVQAGGSLRLSCAASGSTFAYYTMGWYRQAPGKERELVAAITSAGRTSYADSVKGRFTISRDNAKNTVYLQMKSLKPDDTAVYYCAKGRKPGYYYWGQGTQVTVSS please.
high polyreactivity

* * *

# experiment.summary: yeast display, Sf9 membrane polyspecificity reagent, FACS + sequencing; frameworks hold sequencing errors
readout.kind: polyreactivity (PSR sort gate)

Examples from the recorded data:
QVQLVESGGGLVQAGGSLRLSCAASGHIYFYYTMGWYRQAPGKERDLVAGITIGGSTNYADSVKGRFTISRDNAKNTVYLQMNSLKPEDTAVYYCNVVKYVYIYSYWEYYYWGQGTQVTVSS ... low polyreactivity
QVQLVESGGGLVQAGGSLRLSCAASGSTFGNNTMGWNRQSPGKEREFVAAITESGGGTYADSVKGRFTISRDNAKNTVYLQLNSLKPEDTAVYYCAAVWYIWPFAFYDWAQGTQVTVSS ... high polyreactivity
QVQRVESGGGLVLAGGSLRLSCAASAHIFAWYAMGWYRQAPGNERELVADISSRGGSTYYADSVKGRITISRDNAKNTVYLQMNSLKPEDTAVYSCAAVCYWTQDYDYWGQGTQVTVSS ... low polyreactivity
QVQLVESGGGLVLAGGSLRLSCAASGFIFDIYAMGCYRQAPGKERELVASITWDDGSTYYADSVKGRFTISRDNAKNTVYLQMNSLNPEDTAVYYCAADFEAGGYSLDYWGHGTQVTVSS ... low polyreactivity
QVQLVESGGGLVQAGGSLRLICAASGSIFYFYAMGWYREAPGKERELVAAIRYNGGSTYYADSVKGRFTISRDNAKNTVYLQMNSLKPEDTAVYYCAAGGFHYVYYRGMYYWGQGTQVTVSS ... high polyreactivity
QVQLVESGGGLVQAGGSLRLSCAASGRIFMNYDMGWYRQPPGKERELVADISISGSTDYADSVKGRFTISRDNAKNTVYLQMNSLKPEDTAVYYCATSFYVSDYYVPYEMGYWGQGTQVTVSS ... low polyreactivity
QVQLVESGGGLVQAGGSLRLSCAASGRTFAGNAMGWYRQAPGKERELVAAIRRTGGRTYYADSVKGRFTISRDNAKNTVYLQMNSLKPEETAVYYCNAVNKPYTREYGYDYWGQGTQVTGSS ... high polyreactivity
QVQLVESGGCLVPAGGSLRLSGAASGSTYHFYAMGWYRHAQGKERELVASITSRGGNTHYADSVKGRFRISRDNAKNTVYFQMNSLKPEVTAVYSCAASGGWYGTYDYWGQGTQVTVSS ... low polyreactivity

Using the record for QVQLVESGGGLVQAGGSLRLSCAASGSIFGYYAMGWYRQAPGKEREFVAAISVSGSRTYYADSVKGRFTISRDNAKNTVYLQMNSLKPEYTAVYYCAARVDYRHRYYYWGQGTLVTVSS , state its measured polyreactivity (PSR sort gate).
high polyreactivity

Please report the measured polyreactivity (PSR sort gate) for QVQLVESGGGLVQAGGSLRLSFAASGSTFGVNAMGWYRQAPGKERELVAVITRSGGSTYYADSVKGRFTISRDNAKNTVYLQMNSLKPEDTAVYYCGKSGVVDWGQGTQVTVSS
low polyreactivity

# return recorded polyreactivity (PSR sort gate) for entry QVQLVESGGGLVQAGGSLSLSCAASGSIFFVNAMGWYRQAPGKERELVAAISRSGGRTYYADSVKGRFTISRDNAKNTVYFQMNSLKPEDTAVYYCAAEYNPGSYFTYDYWGQGTQVTVSS
low polyreactivity
